system: KB; assay: Cytotoxicity against human KB cells by sulforhodamine B assay; assay type: functional, cell-based
pIC50: −log10 of the molar value.
What pIC50 was measured for each of the following?

// known answers, use as guide
>>> result("COc1cc2c(c(OC)c1O)CCN1C(=O)c3c(ccc(O)c3O)C[C@@H]21")
"< 4.32"
>>> result("COc1cc(O)c2c(=O)c(OC)c(-c3ccc(O)c(OC)c3)oc2c1 [PACHYPODOL]")
"< 4.32"

Provide reported pIC50 for each item, in the same order as listed.
1. COc1cc(OC)c2c(=O)c(OC)c(-c3ccc(O)c(OC)c3)oc2c1
2. O=C(/C=C/c1ccc(O)c(O)c1)NCCc1ccc(O)cc1
3. CC(C)=CCC/C(C)=C/[C@H]1OC(=O)C[C@]12C[C@H](O)C=CC2=O
4. COc1cc(O)c2c(=O)c(OC)c(-c3ccc4c(c3)OCO4)oc2c1

Result:
1: < 4.32; 2: < 4.32; 3: 4.99; 4: < 4.32
